# Test system: DENV-2
# assay.details: DENV titer-reduction assay (plaque assay)
# Type: cell-based, dengue virus
# details: 8.5 µM (compound 14 at 1.5 µM), Huh7, MOI 0.05, 72 h
# Experimental: Selected compounds were validated at 8.5 µM or 1.5 µM (for compounds considered toxic at higher concentrations) using titer-reduction assays. Huh7 cells (1.5 × 10^5 per well) were plated in 24-well plates. […] Seventy-two hpi, supernatants from infected and treated cells were collected and viral titers were measured by plaque assay. […] Infectious virus titer (pfu/mL) was determined using the following formula: number of plaques × dilution factor × (1/inoculum volume (mL)). […]
metric.name: Inhibition of DENV (% inhibition / protection)

[
  {
    "query.smiles": "O=[N+]([O-])c1ccc(Cn2ccc3c(NCc4ccc(Cl)c(Cl)c4)ncnc32)cc1",
    "tested.on": "DENV-2",
    "result": "among the top inhibitors"
  },
  {
    "query.smiles": "O=[N+]([O-])c1ccc(Cn2ccc3c(NCc4cccc(Cl)c4)ncnc32)cc1",
    "tested.on": "DENV-2",
    "result": "among the top inhibitors"
  },
  {
    "query.smiles": "N#Cc1ccc(Cn2ccc3c(NCc4cccc(Cl)c4)ncnc32)cc1",
    "tested.on": "DENV-2",
    "result": "among the top inhibitors"
  },
  {
    "query.smiles": "N#Cc1cccc(Cn2ccc3c(NCc4cccc(Cl)c4)ncnc32)c1",
    "tested.on": "DENV-2",
    "result": "among the top inhibitors"
  }
]
